target: recombinant BRD4 BD1 (Homo sapiens, UniProt O60885); construct: recombinant BRD4 BD1 and BRD4 BD2 proteins; test: Competitive fluorescence-polarization (FP) binding assay, BRD4 BD1; conditions: FP competitive binding; protein 10 nM, probe 1.5 nM; read-out: IC50 (nM) BRD4 BD1
measured attribute: IC50 (nM)

// known answers, use as guide
>  <molecule>
Cc1nnc2n1-c1sc(CN3CCOCC3)c(Cc3ccccc3)c1COC2

>  <result value>
6510

$$$$
>  <molecule>
Cc1nnc2n1-c1cccc(Sc3ccccc3)c1COC2

>  <result value>
5450

$$$$
>  <molecule>
Cc1sc2c(c1Cc1ccccc1)CN(C1CCC1)[C@@H](C)c1nnc(C)n1-2

>  <result value>
1470

$$$$

[P] Cc1sc2c(c1Cc1ccccc1F)COCc1nnc(C)n1-2
[Q] Cc1nnc2n1-c1ccc(C3=CCOCC3)c(Cc3ccccc3)c1COC2
[R] Cc1sc2c(c1Cn1cccc1)COCc1nnc(C)n1-2
// sort entries: IC50, high to low When ranking, write the labels in the order the request describes. Q, R, P
(Q: 13200 nM, R: 494 nM, P: 222 nM)

[P] Cc1nnc2n1-c1cccc([S+]([O-])c3ccccc3)c1COC2 (stereo not drawn)
[Q] Cc1nnc2n1-c1sc(-c3cnn(C)c3)c(Cc3ccccc3)c1COC2
Thinking about recorded IC50 values, which is higher, P or Q ? Respond with the label that goes with your answer. P

* * *

target: recombinant BRD4 BD1 (Homo sapiens, UniProt O60885); construct: recombinant BRD4 BD1 and BRD4 BD2 proteins; assay: Competitive fluorescence-polarization (FP) binding assay, BRD4 BD1; details: FP competitive binding; protein 10 nM, probe 1.5 nM; read-out: IC50 (nM) BRD4 BD1
measured attribute: IC50 (nM)

>  <molecule>
Cc1sc2c(c1Cc1ccc(F)c(F)c1)COCc1nnc(C)n1-2 [Cpd. No. 105]

>  <measured attribute>
IC50

>  <readout units>
nM

>  <result value>
279

$$$$
>  <molecule>
Cc1nnc2n1-c1ccc(-c3cn[nH]c3)c(Cc3ccccc3)c1COC2 [Cpd. No. 75]

>  <measured attribute>
IC50

>  <readout units>
nM

>  <result value>
923

$$$$
>  <molecule>
Cc1sc2c(c1-c1ccnc3ccccc13)COCc1nnc(C)n1-2 [Cpd. No. 5]

>  <measured attribute>
IC50

>  <readout units>
nM

>  <result value>
1370

$$$$
>  <molecule>
CCOC(=O)N1Cc2c(sc(C)c2Cc2ccccc2)-n2c(C)nnc2[C@@H]1C [Cpd. No. 18]

>  <measured attribute>
IC50

>  <readout units>
nM

>  <result value>
532

$$$$

[I] Cc1nnc2n1-c1cccc(Cc3ccc(OC(F)(F)F)cc3)c1COC2 [Cpd. No. 45]
[II] Cc1sc2c(c1Cc1cccc(C#N)c1)COCc1nnc(C)n1-2 [Cpd. No. 101]
Could you point out whether the larger IC50 belongs to I or to II ? Answer with the label corresponding to your selection. I
(I: 1550 nM, II: 832 nM)
